- system.under.test: TvDAAO (Trigonopsis variabilis)
- Construct: gene DAO1; FAD-containing; no tag mentioned
- Sequence (Q99042 whole entry): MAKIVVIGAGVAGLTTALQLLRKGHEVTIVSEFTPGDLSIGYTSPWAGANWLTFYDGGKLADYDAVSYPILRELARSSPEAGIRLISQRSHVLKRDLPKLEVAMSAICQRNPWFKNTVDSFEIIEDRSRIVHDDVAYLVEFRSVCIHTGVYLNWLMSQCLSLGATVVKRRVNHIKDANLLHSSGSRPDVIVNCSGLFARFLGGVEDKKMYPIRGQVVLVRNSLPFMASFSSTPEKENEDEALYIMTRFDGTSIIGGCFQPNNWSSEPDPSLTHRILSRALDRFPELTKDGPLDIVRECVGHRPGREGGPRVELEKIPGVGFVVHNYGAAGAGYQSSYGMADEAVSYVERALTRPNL
- test.name: horseradish peroxidase / ABTS coupled assay, […] nm
- Type: biochemical
- study.conditions: 0.05 M potassium phosphate pH 8.0, 30 °C, air saturated; read-out: wt-TvDAAO / KM
Label Fulfilled when Km is strictly below 500 µM; at or above that, label Not fulfilled.

query.smiles	cat
N[C@H](Cc1ccc(O)cc1)C(=O)O	Fulfilled
CSCC[C@@H](N)C(=O)O	Fulfilled
N[C@H](Cc1ccccc1)C(=O)O	Fulfilled
C[C@H](O)[C@@H](N)C(=O)O	Not fulfilled
NCCCC[C@@H](N)C(=O)O	Not fulfilled
N[C@H](CO)C(=O)O	Not fulfilled
